# tested.system: human recombinant DOR (Homo sapiens)
# experimental.details: Calcium mobilization assay, CHO DOR cells with GαqG66Di5
# stated.conditions: calcium mobilization, CHO DOR GαqG66Di5; maximum tested concentration 10 µM; read-out: DOR EC50 ± SEM
Numbered stars: 1 amine (or outer) side, 2 acyl side, 3 side chain; on linkers, the order of the positions; unused ones are H or OH. Square brackets hold non-standard residues; d marks the D form. Peptide text beside a SMILES is read from it. * marks the point of attachment. X1 = O=C1[C@@H](N[*:1])Cc2ccccc2CN1CCC(=O)[*:2]; Dmt = Cc1cc(O)cc(C)c1C[C@H](N)C(=O)O; 4Amb = NCc1ccc(C(=O)O)cc1; Ac5c = NC1(C(=O)O)CCCC1; X2 = C(CN*)CN1CCOCC1
Hi there, I'd appreciate the recorded pEC50 for every entry that follows.
Give bare numbers, as −log10 of the molar value.

Solved entries (count: 3):
CC[C@H](NC(=O)c1c(OCCNC(=O)CCN2Cc3ccccc3C[C@H](NC(=O)[C@@H](CCCNC(=N)N)NC(=O)[C@@H](N)Cc3c(C)cc(O)cc3C)C2=O)c(-c2ccccc2)nc2ccccc12)c1ccccc1 = 7.08
Cc1cc(O)cc(C)c1C[C@H](N)C(=O)N[C@H](CCCNC(=N)N)C(=O)N[C@H]1Cc2ccccc2CN(CCC(=O)NCc2ccc(C(=O)NC3(C(=O)N[C@H](Cc4ccccc4)C(=O)NCCCN4CCOCC4)CCCC3)cc2)C1=O [SBL-OPNK-7] (H-[Dmt][dR][X1][4Amb][Ac5c][dF]-X2) = 7.18
Cc1cc(O)cc(C)c1C[C@H](N)C(=O)N[C@H](CCCNC(=N)N)C(=O)N[C@H]1Cc2ccccc2CN(CCC(=O)N[C@@H](CC(=O)O)C(=O)N[C@@H](Cc2ccc(O)cc2)C(=O)N[C@H](Cc2c[nH]c3ccccc23)C(=O)N[C@H](C(=O)N[C@H](Cc2c[nH]c3ccccc23)C(=O)N[C@H](Cc2c[nH]c3ccccc23)C(=O)N[C@@H](CCCCN)C(N)=O)C(C)C)C1=O [SBL-OPNK-5] (H-[Dmt][dR][X1]DY[dW]V[dW][dW]K-NH2) = 6.93

Let us examine a further case.
Query: Report pEC50 for Cc1cc(O)cc(C)c1C[C@H](N)C(=O)N[C@H](CCCNC(=N)N)C(=O)N[C@H]1Cc2ccccc2CN(CCC(N)=O)C1=O [KGOP01, H-Dmt-D-Arg-Aba-βAla-NH2, reference compound] please.
Response: 7.12

====

# tested.system: human recombinant DOR (Homo sapiens, UniProt P41143)
# Construct: expressed in transfected cells; host or cells: CHO cells (gift from Prof. Girolamo Calo', Ferrara University)
# Sequence (P41143 whole entry): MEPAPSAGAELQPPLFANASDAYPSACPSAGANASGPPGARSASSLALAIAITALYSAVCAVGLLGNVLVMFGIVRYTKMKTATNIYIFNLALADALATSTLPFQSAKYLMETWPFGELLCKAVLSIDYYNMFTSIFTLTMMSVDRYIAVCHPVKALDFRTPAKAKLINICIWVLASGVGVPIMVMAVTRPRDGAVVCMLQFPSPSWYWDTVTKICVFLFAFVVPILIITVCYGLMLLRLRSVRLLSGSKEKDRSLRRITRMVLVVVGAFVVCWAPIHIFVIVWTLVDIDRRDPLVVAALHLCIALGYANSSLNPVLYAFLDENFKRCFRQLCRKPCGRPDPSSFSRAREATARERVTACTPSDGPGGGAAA
# experimental.details: Calcium mobilization assay, CHO DOR cells with GαqG66Di5
# Assay type: cell-based
# stated.conditions: intrinsic activity: Emax of ligand / Emax of DPDPE
Numbered stars: 1 amine (or outer) side, 2 acyl side, 3 side chain; on linkers, the order of the positions; unused ones are H or OH. Square brackets hold non-standard residues; d marks the D form. Peptide text beside a SMILES is read from it. * marks the point of attachment. X1 = O=C1[C@@H](N[*:1])Cc2ccccc2CN1CCC(=O)[*:2]; Dmt = Cc1cc(O)cc(C)c1C[C@H](N)C(=O)O; 4Amb = NCc1ccc(C(=O)O)cc1; Ac5c = NC1(C(=O)O)CCCC1; X2 = C(CN*)CN1CCOCC1
recorded.endpoint: DOR α ± SEM
Numbers only.

Cc1cc(O)cc(C)c1C[C@H](N)C(=O)N[C@H](CCCNC(=N)N)C(=O)N[C@H]1Cc2ccccc2CN(CCC(=O)NCc2ccc(C(=O)NC3(C(=O)N[C@H](Cc4ccccc4)C(=O)NCCCN4CCOCC4)CCCC3)cc2)C1=O [SBL-OPNK-7] (H-[Dmt][dR][X1][4Amb][Ac5c][dF]-X2) = 1.02

Query: Short answer please: DOR α ± SEM, human recombinant DOR (Homo sapiens, UniProt P41143), entry CC[C@H](NC(=O)c1c(OCCNC(=O)CCN2Cc3ccccc3C[C@H](NC(=O)[C@@H](CCCNC(=N)N)NC(=O)[C@@H](N)Cc3c(C)cc(O)cc3C)C2=O)c(-c2ccccc2)nc2ccccc12)c1ccccc1
Response: 1.02
